Values compiled from patent US9884063B2.

molecular target: TNKS1 (Homo sapiens, UniProt O95271); experiment: Modified TNKS1 Assay 3 (BPS kit #80573, biotin-NAD+, 96 well); type: biochemical; conditions: human TNKS1, BPS kit #80573, 96 well
Where a name gives a salt, the structure may show the parent alone.
experimentalEndpoint: log10(IC50) (log10 of the value in nM)

- molecule: "CC(CN1CCOCC1)NC(=O)c1[nH]cnc1C(=O)Nc1ccc(NC(=O)c2ccc(F)cc2Cl)cc1 (single isomer, unassigned; enantiomer 2) [Example 270]"
  observed: 0.85
- molecule: "CNCCNC(=O)c1[nH]cnc1C(=O)Nc1ccc(NC(=O)c2ccc(F)cc2Cl)cc1 [Example 287]"
  observed: 1.90
- molecule: "O=C(Nc1ccc(NC(=O)c2[nH]cnc2C(=O)NCCN2CCCCC2)cc1)c1ccc(F)cc1Cl [Example 127, hydrochloride]"
  observed: 0.30
- molecule: "O=C(Nc1ccc(NC(=O)c2[nH]cnc2C(=O)NC2CC2)cc1)c1ccc(F)cc1Cl [Example 45]"
  observed: 1.85
- molecule: "O=C(Nc1ccc(NC(=O)c2[nH]cnc2C(=O)NCCN2CCCCC2)cc1F)c1ccccc1Cl [Example 82]"
  observed: 1.00
- molecule: "CC(C)(N)CCNC(=O)c1[nH]cnc1C(=O)Nc1ccc(NC(=O)c2ccc(F)cc2Cl)cc1 [Example 286]"
  observed: 1.85
- molecule: "CCN1CCC(CNC(=O)c2nc[nH]c2C(=O)Nc2ccc(NC(=O)c3ccc(F)cc3Cl)cc2)C1 (stereo not shown) [Example 411]"
  observed: 1.85

* * *

biological target: UniProt:Q9H2K2; assay: Modified TNKS2 Assay 2 (auto-parsylation, [3H]-NAD+ SPA); type: biochemical; conditions: 6 nM TNKS2, 96 well
Sequence (Q9H2K2 whole entry): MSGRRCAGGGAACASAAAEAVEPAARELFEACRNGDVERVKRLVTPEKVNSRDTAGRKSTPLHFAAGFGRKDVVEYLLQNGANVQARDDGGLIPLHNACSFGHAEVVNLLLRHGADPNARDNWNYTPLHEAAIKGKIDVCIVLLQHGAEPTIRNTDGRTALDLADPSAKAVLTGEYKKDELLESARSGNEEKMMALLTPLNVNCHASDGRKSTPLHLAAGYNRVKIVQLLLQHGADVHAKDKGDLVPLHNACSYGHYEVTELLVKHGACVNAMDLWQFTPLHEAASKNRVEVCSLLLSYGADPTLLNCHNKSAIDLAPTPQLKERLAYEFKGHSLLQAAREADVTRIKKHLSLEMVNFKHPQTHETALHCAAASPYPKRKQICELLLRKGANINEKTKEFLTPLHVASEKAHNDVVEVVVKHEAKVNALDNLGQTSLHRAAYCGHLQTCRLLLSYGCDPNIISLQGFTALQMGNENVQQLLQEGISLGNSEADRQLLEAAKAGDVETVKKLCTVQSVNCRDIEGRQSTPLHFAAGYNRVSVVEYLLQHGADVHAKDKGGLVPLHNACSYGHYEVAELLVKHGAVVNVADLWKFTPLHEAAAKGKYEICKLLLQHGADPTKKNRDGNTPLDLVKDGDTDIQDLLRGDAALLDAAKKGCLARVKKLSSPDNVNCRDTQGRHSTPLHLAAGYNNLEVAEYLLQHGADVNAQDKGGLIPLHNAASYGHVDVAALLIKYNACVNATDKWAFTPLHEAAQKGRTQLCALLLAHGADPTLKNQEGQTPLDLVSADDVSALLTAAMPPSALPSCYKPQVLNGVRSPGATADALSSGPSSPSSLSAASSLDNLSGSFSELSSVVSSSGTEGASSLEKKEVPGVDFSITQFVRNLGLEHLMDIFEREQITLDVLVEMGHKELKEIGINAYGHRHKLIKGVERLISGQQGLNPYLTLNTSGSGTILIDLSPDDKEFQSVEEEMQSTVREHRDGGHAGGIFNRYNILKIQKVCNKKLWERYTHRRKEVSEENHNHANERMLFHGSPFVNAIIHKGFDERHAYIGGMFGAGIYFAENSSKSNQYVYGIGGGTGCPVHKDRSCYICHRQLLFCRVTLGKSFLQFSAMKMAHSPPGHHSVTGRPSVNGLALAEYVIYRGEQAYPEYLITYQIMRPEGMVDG
pIC50: −log10 of the molar value.
// reported pIC50 per item

- molecule: "CCS(=N)(=O)c1ccc(C(=O)Nc2ccc(NC(=O)c3[nH]cnc3C(=O)NC)cc2)c(Cl)c1 (stereo not shown)"
  valuePrefix: "="
  pIC50: 6.19
- molecule: "CNC(=O)c1nc[nH]c1C(=O)Nc1ccc(NC(=O)c2ccc(C)cc2Cl)cc1"
  valuePrefix: "="
  pIC50: 7.05
- molecule: "CNC(=O)c1nc[nH]c1C(=O)Nc1ccc(NC(=O)c2ccccc2Cl)cc1"
  valuePrefix: "="
  pIC50: 6.28
- molecule: "CNC(=O)c1nc[nH]c1C(=O)Nc1ccc(NC(=O)c2ccccc2O)cc1"
  valuePrefix: "<"
  pIC50: 5.00

* * *

Molecular target: TNKS1 (Homo sapiens)
Sequence (O95271 1-1327): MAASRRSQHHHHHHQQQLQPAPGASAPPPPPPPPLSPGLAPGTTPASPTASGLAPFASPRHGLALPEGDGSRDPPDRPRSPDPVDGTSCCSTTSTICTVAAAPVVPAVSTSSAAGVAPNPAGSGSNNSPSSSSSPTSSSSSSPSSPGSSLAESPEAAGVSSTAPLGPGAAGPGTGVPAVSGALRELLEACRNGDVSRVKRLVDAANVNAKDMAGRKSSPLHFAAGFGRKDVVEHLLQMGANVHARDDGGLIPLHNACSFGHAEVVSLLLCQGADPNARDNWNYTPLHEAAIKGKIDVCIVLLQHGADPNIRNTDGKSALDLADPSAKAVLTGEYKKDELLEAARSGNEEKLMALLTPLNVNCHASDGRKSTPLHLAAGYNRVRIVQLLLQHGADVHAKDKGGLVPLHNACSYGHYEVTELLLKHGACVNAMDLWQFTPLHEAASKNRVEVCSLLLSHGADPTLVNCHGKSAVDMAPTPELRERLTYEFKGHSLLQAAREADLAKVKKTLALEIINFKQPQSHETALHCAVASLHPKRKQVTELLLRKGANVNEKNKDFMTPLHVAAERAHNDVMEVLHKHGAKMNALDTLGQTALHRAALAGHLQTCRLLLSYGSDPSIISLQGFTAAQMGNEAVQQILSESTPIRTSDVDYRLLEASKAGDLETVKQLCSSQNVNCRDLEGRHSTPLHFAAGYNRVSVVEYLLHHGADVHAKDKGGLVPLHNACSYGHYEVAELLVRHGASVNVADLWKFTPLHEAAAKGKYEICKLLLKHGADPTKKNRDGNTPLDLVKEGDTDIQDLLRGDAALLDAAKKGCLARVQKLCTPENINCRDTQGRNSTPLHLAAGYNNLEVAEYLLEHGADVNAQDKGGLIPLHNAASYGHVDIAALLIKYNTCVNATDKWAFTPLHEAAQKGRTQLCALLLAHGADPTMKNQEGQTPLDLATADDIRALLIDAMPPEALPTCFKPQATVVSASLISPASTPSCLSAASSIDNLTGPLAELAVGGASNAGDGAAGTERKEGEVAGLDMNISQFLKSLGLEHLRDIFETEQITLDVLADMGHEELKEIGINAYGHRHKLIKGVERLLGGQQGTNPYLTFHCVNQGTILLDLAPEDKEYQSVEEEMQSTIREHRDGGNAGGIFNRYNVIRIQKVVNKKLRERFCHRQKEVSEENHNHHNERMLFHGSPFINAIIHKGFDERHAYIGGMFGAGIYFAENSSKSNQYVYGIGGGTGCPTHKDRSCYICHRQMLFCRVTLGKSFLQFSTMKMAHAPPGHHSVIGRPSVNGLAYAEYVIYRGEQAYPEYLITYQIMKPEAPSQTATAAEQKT
Assay: Modified TNKS1 Assay 3 (BPS kit #80573, biotin-NAD+, 96 well)
Format: biochemical
Conditions: human TNKS1, BPS kit #80573, 96 well
// reported IC50 per item
experimentalEndpoint: IC50 (nM)

- compound: "CC(C)[C@@H](C)NC(=O)c1[nH]cnc1C(=O)Nc1ccc(NC(=O)c2ccc(F)cc2Cl)cc1"
  systemTested: "TNKS1 (Homo sapiens)"
  resultUnits: "nM"
  valuePrefix: "="
  observed: 360
- compound: "O=C(Nc1ccc(NC(=O)c2nc[nH]c2C(=O)N2CCC2)cc1)c1ccc(F)cc1Cl"
  systemTested: "TNKS1 (Homo sapiens)"
  resultUnits: "nM"
  valuePrefix: "="
  observed: 190
- compound: "O=C(Nc1ccc(NC(=O)c2nc[nH]c2C(=O)NCCN2CCCCC2)cc1)c1ccc(F)cc1Br"
  systemTested: "TNKS1 (Homo sapiens)"
  resultUnits: "nM"
  valuePrefix: "="
  observed: 3
- compound: "CC(CN1CCOCC1)NC(=O)c1[nH]cnc1C(=O)Nc1ccc(NC(=O)c2ccc(F)cc2Cl)cc1 (single isomer, unassigned; enantiomer 1) [Example 269]"
  systemTested: "TNKS1 (Homo sapiens)"
  resultUnits: "nM"
  valuePrefix: "="
  observed: 80
- compound: "O=C(Nc1ccc(NC(=O)c2nc[nH]c2C(=O)NCCO)cc1)c1ccc(F)cc1Cl"
  systemTested: "TNKS1 (Homo sapiens)"
  resultUnits: "nM"
  valuePrefix: ">"
  observed: 500
- compound: "CN(C)CC(C)(C)CNC(=O)c1nc[nH]c1C(=O)Nc1ccc(NC(=O)c2ccc(F)cc2Cl)cc1"
  systemTested: "TNKS1 (Homo sapiens)"
  resultUnits: "nM"
  valuePrefix: "="
  observed: 180
- compound: "CNC(=O)c1nc[nH]c1C(=O)Nc1ccc(NC(=O)c2ccc(F)cc2Cl)nc1"
  systemTested: "TNKS1 (Homo sapiens)"
  resultUnits: "nM"
  valuePrefix: "="
  observed: 130
